# Assayed system: Sm20S β5 subunit (Schistosoma mansoni)
# Method summary: Sm20S β5 inhibition assay
# Format: biochemical
# Measurement setup: read-out: IC50 Sm20S β5; Suc-LLVY-AMC
Property name: IC50 (nM)
Numeric only. Scale: nM

Kindly note the recorded IC50 for CCCCCC(=O)N[C@H](C(=O)N[C@@H](CCS(C)(=O)=O)C(=O)N[C@@H](CC(C)C)C(=O)[C@@]1(C)CO1)C(C)C , which is 9.8

---

# Assayed system: human immunoproteasome (i20S) β5 subunit (Homo sapiens, UniProt P28062)
# Method summary: i20S β5 inhibition assay
# Measurement setup: read-out: IC50 i20S β5
Property name: IC50

Kindly note the recorded IC50 for CCCCCC(=O)N[C@H](C(=O)N[C@@H](CCS(C)(=O)=O)C(=O)N[C@@H](CC(C)C)C(=O)[C@@]1(C)CO1)C(C)C , which is < 5 nM

---

# Assayed system: Sm20S β2 subunit (Schistosoma mansoni, UniProt G4VSW3)
# Method summary: Sm20S β2 inhibition assay
# Measurement setup: read-out: IC50 Sm20S β2; z-LRR-AMC
# pIC50 annotations
Field pIC50 (float): negative decimal logarithm of the concentration in molar.

Compound	Assayed system	Number
CCCCCC(=O)N[C@H](C(=O)N[C@@H](CCS(C)(=O)=O)C(=O)N[C@@H](CC(C)C)C(=O)[C@@]1(C)CO1)C(C)C [carmaphycin B]	Sm20S β2 subunit (Schistosoma mansoni, UniProt G4VSW3)	9.22
CC(C)C[C@H](NC(=O)[C@H](CCc1ccccc1)NC(=O)CN1CCOCC1)C(=O)N[C@@H](Cc1ccccc1)C(=O)N[C@@H](CC(C)C)C(=O)[C@@]1(C)CO1 [carfilzomib]	Sm20S β2 subunit (Schistosoma mansoni, UniProt G4VSW3)	7.32

For the next question, use this compound.
Kindly note the recorded pIC50 for CC(C)C[C@H](NC(=O)[C@H](Cc1ccccc1)NC(=O)c1cnccn1)B(O)O [bortezomib] , which is 6.57

---

# Assayed system: Sm20S β1 subunit (Schistosoma mansoni, UniProt G4V926)
# Method summary: Sm20S β1 inhibition assay
# Measurement setup: read-out: IC50 Sm20S β1; z-LLE-AMC
# IC50 annotations

Some solved cases for reference:
Smiles record	Result
CC(C)C[C@H](NC(=O)[C@H](Cc1ccccc1)NC(=O)c1cnccn1)B(O)O	15 nM
CC(C)C[C@H](NC(=O)[C@H](CCc1ccccc1)NC(=O)CN1CCOCC1)C(=O)N[C@@H](Cc1ccccc1)C(=O)N[C@@H](CC(C)C)C(=O)[C@@]1(C)CO1	> 500 nM

For the next question, use this compound.
Kindly note the recorded IC50 for CCCCCC(=O)N[C@H](C(=O)N[C@@H](CCS(C)(=O)=O)C(=O)N[C@@H](CC(C)C)C(=O)[C@@]1(C)CO1)C(C)C , which is > 500 nM
